For each record, write down the corresponding combination Emax.
tested on: NUGC-3 (Gastric Carcinoma); test: combination Emax (second highest fraction inhibited in the dose matrix, 72 h); higher = more inhibition; extreme values may be limits of the assay
# output: bare number, no unit

Can you look up the measured combination Emax of Cc1c2c(nn1C)CSCc1cc(n(C)n1)CSc1cc(c3ccccc3c1)OCCCc1c(C(=O)O)n(C)c3c-2c(Cl)ccc13 [AZD5991] + CC1(C)CCC(CN2CCN(c3ccc(C(=O)NS(=O)(=O)c4ccc(NCC5CCOCC5)c([N+](=O)[O-])c4)c(Oc4cnc5[nH]ccc5c4)c3)CC2)=C(c2ccc(Cl)cc2)C1 [Venetoclax] (first compound max 1 µM, 7x7, partner max 1 µM) for me? 0.196

Can you look up the measured combination Emax of COc1nnc2ccc(N3CCC(c4ccc(OCCN5CCN(C)C(=O)[C@H]5C)cc4)CC3)nn12 [AZD5153] + Cc1c2c(nn1C)CSCc1cc(n(C)n1)CSc1cc(c3ccccc3c1)OCCCc1c(C(=O)O)n(C)c3c-2c(Cl)ccc13 [AZD5991] (first compound max 1 µM, 7x7, partner max 1 µM) for me? 0.519

Can you look up the measured combination Emax of CC1(C)CCC(CN2CCN(c3ccc(C(=O)NS(=O)(=O)c4ccc(NCC5CCOCC5)c([N+](=O)[O-])c4)c(Oc4cnc5[nH]ccc5c4)c3)CC2)=C(c2ccc(Cl)cc2)C1 [Venetoclax] + Cc1cc2ncnn2cc1Nc1ncc2c(n1)n(C1CCOCC1)c(=O)n2C [AZD7648] (first compound max 1 µM, 7x7, partner max 10 µM) for me? 0.409

----------
tested on: ACHN (Kidney Carcinoma); assay: combination Emax (second highest fraction inhibited in the dose matrix, 72 h); higher = more inhibition; extreme values may be limits of the assay
# combination Emax >= 0.8 gives rule met, anything below gives rule not met

Check this molecule for combination Emax at or above 0.8: CC1(C)CCC(CN2CCN(c3ccc(C(=O)NS(=O)(=O)c4ccc(NCC5CCOCC5)c([N+](=O)[O-])c4)c(Oc4cnc5[nH]ccc5c4)c3)CC2)=C(c2ccc(Cl)cc2)C1 [Venetoclax] + COc1cc(Nc2ncc3c(n2)-c2ccc(Cl)cc2C(c2c(F)cccc2OC)=NC3)ccc1C(=O)O [Alisertib] (first compound max 1 µM, 7x7, partner max 10 µM) rule not met

Check this molecule for combination Emax at or above 0.8: CN(CCO)CC[C@H](CSc1ccccc1)Nc1ccc(S(=O)(=O)NC(=O)c2ccc(N3CCC([C@@H](O)c4ccccc4-c4ccc(Cl)cc4)CC3)cc2)cc1S(=O)(=O)C(F)(F)F [AZD4320] + CN(C)CCCOc1ccc(-c2ccc3ncc4c(c3c2)n(C2CCOCC2)c(=O)n4C)cn1 [AZD0156] (first compound max 1 µM, 7x7, partner max 1 µM) rule not met

Check this molecule for combination Emax at or above 0.8: CN(C)CCCOc1ccc(-c2ccc3ncc4c(c3c2)n(C2CCOCC2)c(=O)n4C)cn1 [AZD0156] + C[C@@H]1COCCN1C2=NC(=NC(=C2)C3(CC3)[S@](=N)(=O)C)C4=C5C=CNC5=NC=C4 [AZD6738] (first compound max 1 µM, 7x7, partner max 10 µM) rule met

Check this molecule for combination Emax at or above 0.8: COc1cccc(OCCCN)c1-c1cc(Nc2cnc(C#N)cn2)n[nH]1 [Prexasertib] + CCc1c2c(nc3ccc(O)cc13)-c1cc3c(c(=O)n1C2)COC(=O)[C@]3(O)CC [SN-38] (first compound max 1 µM, 7x7, partner max 0.3 µM) rule met

Check this molecule for combination Emax at or above 0.8: Cc1c2c(nn1C)CSCc1cc(n(C)n1)CSc1cc(c3ccccc3c1)OCCCc1c(C(=O)O)n(C)c3c-2c(Cl)ccc13 [AZD5991] + Cn1cnc2c(F)c(Nc3ccc(Br)cc3Cl)c(C(=O)NOCCO)cc21 [Selumetinib] (first compound max 1 µM, 7x7, partner max 3 µM) rule not met

Check this molecule for combination Emax at or above 0.8: Cn1cnc2c(F)c(Nc3ccc(Br)cc3Cl)c(C(=O)NOCCO)cc21 [Selumetinib] + CC(C)n1c(=O)n(C)c2cnc3cc(F)c(-c4ccc(OCCCN5CCCCC5)nc4)cc3c21 [AZD1390] (first compound max 10 µM, 7x7, partner max 0.3 µM) rule not met

----------
system: HSC-4 (Oral Cavity Carcinoma); assay: combination Emax (second highest fraction inhibited in the dose matrix, 72 h); higher = more inhibition; extreme values may be limits of the assay
Outcome Measure: combination Emax
# output: bare number, no unit

Can you look up the measured combination Emax of CC1(C)CCC(CN2CCN(c3ccc(C(=O)NS(=O)(=O)c4ccc(NCC5CCOCC5)c([N+](=O)[O-])c4)c(Oc4cnc5[nH]ccc5c4)c3)CC2)=C(c2ccc(Cl)cc2)C1 [Venetoclax] + C1CN(CCC1(C(=O)N[C@@H](CCO)C2=CC=C(C=C2)Cl)N)C3=NC=NC4=C3C=CN4 [Capivasertib] (first compound max 1 µM, 7x7, partner max 3 µM) for me? 0.306

Can you look up the measured combination Emax of Cc1cc2ncnn2cc1Nc1ncc2c(n1)n(C1CCOCC1)c(=O)n2C [AZD7648] + O=C(c1cc(Cc2n[nH]c(=O)c3ccccc23)ccc1F)N1CCN(C(=O)C2CC2)CC1 [Olaparib] (first compound max 10 µM, 7x7, partner max 10 µM) for me? 0.26

Can you look up the measured combination Emax of CC1(C)CCC(CN2CCN(c3ccc(C(=O)NS(=O)(=O)c4ccc(NCC5CCOCC5)c([N+](=O)[O-])c4)c(Oc4cnc5[nH]ccc5c4)c3)CC2)=C(c2ccc(Cl)cc2)C1 [Venetoclax] + Cn1cnc2c(F)c(Nc3ccc(Br)cc3Cl)c(C(=O)NOCCO)cc21 [Selumetinib] (first compound max 1 µM, 7x7, partner max 3 µM) for me? 0.243

Can you look up the measured combination Emax of CC1(C)CCC(CN2CCN(c3ccc(C(=O)NS(=O)(=O)c4ccc(NCC5CCOCC5)c([N+](=O)[O-])c4)c(Oc4cnc5[nH]ccc5c4)c3)CC2)=C(c2ccc(Cl)cc2)C1 [Venetoclax] + C[C@@H](Nc1cc(F)cc(F)c1)c1cc(C(=O)N(C)C)cc2c(=O)cc(N3CCOCC3)oc12 [AZD8186] (first compound max 1 µM, 7x7, partner max 3 µM) for me? 0.177

Can you look up the measured combination Emax of Cc1c2c(nn1C)CSCc1cc(n(C)n1)CSc1cc(c3ccccc3c1)OCCCc1c(C(=O)O)n(C)c3c-2c(Cl)ccc13 [AZD5991] + CN(C)CCCOc1ccc(-c2ccc3ncc4c(c3c2)n(C2CCOCC2)c(=O)n4C)cn1 [AZD0156] (first compound max 1 µM, 7x7, partner max 1 µM) for me? 0.197

Can you look up the measured combination Emax of COc1cccc(OCCCN)c1-c1cc(Nc2cnc(C#N)cn2)n[nH]1 [Prexasertib] + C=CCn1c(=O)c2cnc(Nc3ccc(N4CCN(C)CC4)cc3)nc2n1-c1cccc(C(C)(C)O)n1 [AZD1775] (first compound max 1 µM, partner max 1 µM) for me? 0.641

Can you look up the measured combination Emax of C=CCn1c(=O)c2cnc(Nc3ccc(N4CCN(C)CC4)cc3)nc2n1-c1cccc(C(C)(C)O)n1 [AZD1775] + C1CN(CCC1(C(=O)N[C@@H](CCO)C2=CC=C(C=C2)Cl)N)C3=NC=NC4=C3C=CN4 [Capivasertib] (first compound max 3 µM, partner max 3 µM) for me? 0.629

Can you look up the measured combination Emax of COc1cccc(OCCCN)c1-c1cc(Nc2cnc(C#N)cn2)n[nH]1 [Prexasertib] + CCc1c2c(nc3ccc(O)cc13)-c1cc3c(c(=O)n1C2)COC(=O)[C@]3(O)CC [SN-38] (first compound max 1 µM, 7x7, partner max 0.3 µM) for me? 0.9

Can you look up the measured combination Emax of CN(CCO)CC[C@H](CSc1ccccc1)Nc1ccc(S(=O)(=O)NC(=O)c2ccc(N3CCC([C@@H](O)c4ccccc4-c4ccc(Cl)cc4)CC3)cc2)cc1S(=O)(=O)C(F)(F)F [AZD4320] + C[C@@H]1COCCN1C2=NC(=NC(=C2)C3(CC3)[S@](=N)(=O)C)C4=C5C=CNC5=NC=C4 [AZD6738] (first compound max 1 µM, 7x7, partner max 10 µM) for me? 0.927

Can you look up the measured combination Emax of CN(C)CCCOc1ccc(-c2ccc3ncc4c(c3c2)n(C2CCOCC2)c(=O)n4C)cn1 [AZD0156] + O=C(c1cc(Cc2n[nH]c(=O)c3ccccc23)ccc1F)N1CCN(C(=O)C2CC2)CC1 [Olaparib] (first compound max 3 µM, partner max 3 µM) for me? 0.234

Can you look up the measured combination Emax of COc1cccc(OCCCN)c1-c1cc(Nc2cnc(C#N)cn2)n[nH]1 [Prexasertib] + CN(C)CCCOc1ccc(-c2ccc3ncc4c(c3c2)n(C2CCOCC2)c(=O)n4C)cn1 [AZD0156] (first compound max 1 µM, 7x7, partner max 1 µM) for me? 0.604

Can you look up the measured combination Emax of C=CCn1c(=O)c2cnc(Nc3ccc(N4CCN(C)CC4)cc3)nc2n1-c1cccc(C(C)(C)O)n1 [AZD1775] + O=C(c1cc(Cc2n[nH]c(=O)c3ccccc23)ccc1F)N1CCN(C(=O)C2CC2)CC1 [Olaparib] (first compound max 1 µM, partner max 10 µM) for me? 0.461

Can you look up the measured combination Emax of COc1nnc2ccc(N3CCC(c4ccc(OCCN5CCN(C)C(=O)[C@H]5C)cc4)CC3)nn12 [AZD5153] + C[C@@H]1COCCN1C2=NC(=NC(=C2)C3(CC3)[S@](=N)(=O)C)C4=C5C=CNC5=NC=C4 [AZD6738] (first compound max 1 µM, 7x7, partner max 10 µM) for me? 0.528

Can you look up the measured combination Emax of CN(CCO)CC[C@H](CSc1ccccc1)Nc1ccc(S(=O)(=O)NC(=O)c2ccc(N3CCC([C@@H](O)c4ccccc4-c4ccc(Cl)cc4)CC3)cc2)cc1S(=O)(=O)C(F)(F)F [AZD4320] + C=CCn1c(=O)c2cnc(Nc3ccc(N4CCN(C)CC4)cc3)nc2n1-c1cccc(C(C)(C)O)n1 [AZD1775] (first compound max 1 µM, partner max 1 µM) for me? 0.585

Values were extracted from the supplement of paper PMC11061612.
